measurementDescription: Biodistribution of 18F-labeled SST2 ligands in AR42J tumor-bearing mice
Format: in vivo
condition: female, CD1 nu/nu, mouse, blood, iv, total radioactivity, Blocking study, 1 h post injection; read-out: Blood % ID/g ± SD
experimentalReadout: tissue uptake at 1 h (%ID/g)

# molecule, measuredNumber
records = [
    ("C[C@@H](O)[C@H](NC(=O)C1CSSCC(NC(=O)C(Cc2ccccc2)NC(=O)CNC(=O)CNC(=O)[C@@H](CC(=O)O)NC(=O)C(CC(=O)O)NC(=O)[C@@H](CNC(=O)CN2CCN(CC(=O)O)CCN(CC(=O)O)CCN(CC(=O)O)CC2)NC(=O)C[N+](C)(C)Cc2ccc([Si](F)(C(C)(C)C)C(C)(C)C)cc2)C(=O)N[C@@H](Cc2ccc(O)cc2)C(=O)NC(Cc2c[nH]c3ccccc23)C(=O)N[C@@H](CCCCN)C(=O)N[C@@H]([C@@H](C)O)C(=O)N1)C(=O)O (stereo partly shown) (natGa complex, metal not drawn) [[Ga]24]", 1.24),
]

----------
measurementDescription: Octanol-water distribution coefficient (logD pH 7.4) of the labeled tracer
Type: physicochemical
condition: n-octanol/PBS pH 7.4, room temperature
experimentalReadout: LogDpH=7.4

# compound, experimentalReadout, measuredNumber
records = [
    ("C[C@@H](O)[C@H](NC(=O)C1CSSCC(NC(=O)C(Cc2ccccc2)NC(=O)COCCOCCNC(=O)C(CC(=O)O)NC(=O)[C@@H](CC(=O)O)NC(=O)C(CNC(=O)CN2CCN(CC(=O)O)CCN(CC(=O)O)CCN(CC(=O)O)CC2)NC(=O)c2ccc([Si](F)(C(C)(C)C)C(C)(C)C)cc2)C(=O)N[C@@H](Cc2ccc(O)cc2)C(=O)NC(Cc2c[nH]c3ccccc23)C(=O)N[C@@H](CCCCN)C(=O)N[C@@H]([C@@H](C)O)C(=O)N1)C(=O)O (stereo partly shown) (natGa complex, metal not drawn) [[Ga]4]", "LogDpH=7.4", "−2.15"),
    ("C[C@@H](O)[C@H](NC(=O)C1CSSCC(NC(=O)C(Cc2ccccc2)NC(=O)[C@@H](CC(N)=O)NC(=O)C(CC(N)=O)NC(=O)CNC(=O)C(CC(=O)O)NC(=O)[C@@H](CC(=O)O)NC(=O)C(CNC(=O)CN2CCN(CC(=O)O)CCN(CC(=O)O)CCN(CC(=O)O)CC2)NC(=O)C[N+](C)(C)Cc2ccc([Si](F)(C(C)(C)C)C(C)(C)C)cc2)C(=O)N[C@@H](Cc2ccc(O)cc2)C(=O)NC(Cc2c[nH]c3ccccc23)C(=O)N[C@@H](CCCCN)C(=O)N[C@@H]([C@@H](C)O)C(=O)N1)C(=O)O (stereo partly shown) [[Lu]49]", "LogDpH=7.4", "−2.24"),
    ("C[C@@H](O)[C@H](NC(=O)C1CSSCC(NC(=O)C(Cc2ccccc2)NC(=O)CNC(=O)CNC(=O)CNC(=O)C(CC(=O)O)NC(=O)[C@@H](CC(=O)O)NC(=O)C(CNC(=O)CN2CCN(CC(=O)O)CCN(CC(=O)O)CCN(CC(=O)O)CC2)NC(=O)[C@@H](CN)NC(=O)CNC(=O)CNC(=O)C[N+](C)(C)Cc2ccc([Si](F)(C(C)(C)C)C(C)(C)C)cc2)C(=O)N[C@@H](Cc2ccc(O)cc2)C(=O)NC(Cc2c[nH]c3ccccc23)C(=O)N[C@@H](CCCCN)C(=O)N[C@@H]([C@@H](C)O)C(=O)N1)C(=O)O (stereo partly shown) [[Lu]53]", "LogDpH=7.4", "−1.74"),
    ("C[C@@H](O)[C@H](NC(=O)C1CSSCC(NC(=O)C(Cc2ccccc2)NC(=O)CNC(=O)CNC(=O)[C@@H](CC(=O)O)NC(=O)C(CC(=O)O)NC(=O)[C@@H](CNC(=O)CN2CCN(CC(=O)O)CCN(CC(=O)O)CCN(CC(=O)O)CC2)NC(=O)c2ccc([Si](F)(C(C)(C)C)C(C)(C)C)cc2)C(=O)N[C@@H](Cc2ccc(O)cc2)C(=O)NC(Cc2c[nH]c3ccccc23)C(=O)N[C@@H](CCCCN)C(=O)N[C@@H]([C@@H](C)O)C(=O)N1)C(=O)O (stereo partly shown) (natGa complex, metal not drawn) [[Ga]9]", "LogDpH=7.4", "−2.02"),
]

----------
measurementDescription: Biodistribution of 18F-labeled SST2 ligands in AR42J tumor-bearing mice
Format: in vivo
condition: female, CD1 nu/nu, mouse, kidneys, iv, total radioactivity, 1 h post injection, tail vein; read-out: Kidneys % ID/g ± SD
experimentalReadout: tissue uptake at 1 h (%ID/g)

# compound, experimentalReadout, measuredNumber
measured = [
    ("C[C@@H](O)[C@H](NC(=O)C1CSSCC(NC(=O)C(Cc2ccccc2)NC(=O)CNC(=O)CNC(=O)CNC(=O)C(CC(=O)O)NC(=O)[C@@H](CC(=O)O)NC(=O)C(CNC(=O)CN2CCN(CC(=O)O)CCN(CC(=O)O)CCN(CC(=O)O)CC2)NC(=O)C[N+](C)(C)Cc2ccc([Si](F)(C(C)(C)C)C(C)(C)C)cc2)C(=O)N[C@@H](Cc2ccc(O)cc2)C(=O)NC(Cc2c[nH]c3ccccc23)C(=O)N[C@@H](CCCCN)C(=O)N[C@@H]([C@@H](C)O)C(=O)N1)C(=O)O (stereo partly shown) (natGa complex, metal not drawn) [[Ga]50]", "tissue uptake at 1 h", 12.3),
]

----------
measurementDescription: Biodistribution of 18F-labeled SST2 ligands in AR42J tumor-bearing mice
Type: in vivo
condition: female, CD1 nu/nu, mouse, pancreas, iv, total radioactivity, 1 h post injection, tail vein; read-out: Pancreas % ID/g ± SD
Threshold check on tissue uptake at 1 h: strictly below 10 %ID/g is Y; on or above 10 %ID/g is N.

# compound, classification
records = [
    ("C[C@@H](O)[C@H](NC(=O)C1CSSCC(NC(=O)C(Cc2ccccc2)NC(=O)CNC(=O)CNC(=O)CNC(=O)C(CC(=O)O)NC(=O)[C@@H](CC(=O)O)NC(=O)C(CCCCN)NC(=O)[C@@H](CNC(=O)C[N+](C)(C)Cc2ccc([Si](F)(C(C)(C)C)C(C)(C)C)cc2)NC(=O)CN2CCN(CC(=O)O)CCN(CC(=O)O)CCN(CC(=O)O)CC2)C(=O)N[C@@H](Cc2ccc(O)cc2)C(=O)NC(Cc2c[nH]c3ccccc23)C(=O)N[C@@H](CCCCN)C(=O)N[C@@H]([C@@H](C)O)C(=O)N1)C(=O)O (some centres unmarked) (natGa complex, metal not drawn) [[Ga]45]", "N"),
    ("C[C@@H](O)[C@H](NC(=O)C1CSSCC(NC(=O)C(Cc2ccccc2)NC(=O)CNC(=O)CNC(=O)CNC(=O)C(CC(=O)O)NC(=O)[C@@H](CC(=O)O)NC(=O)C(CNC(=O)CN2CCN(CC(=O)O)CCN(CC(=O)O)CCN(CC(=O)O)CC2)NC(=O)C[N+](C)(C)Cc2ccc([Si](F)(C(C)(C)C)C(C)(C)C)cc2)C(=O)N[C@@H](Cc2ccc(O)cc2)C(=O)NC(Cc2c[nH]c3ccccc23)C(=O)N[C@@H](CCCCN)C(=O)N[C@@H]([C@@H](C)O)C(=O)N1)C(=O)O (some centres unmarked) (natGa complex, metal not drawn) [[Ga]50]", "N"),
    ("C[C@@H](O)[C@H](NC(=O)C1CSSCC(NC(=O)C(Cc2ccccc2)NC(=O)CNC(=O)CNC(=O)[C@@H](CC(=O)O)NC(=O)C(CC(=O)O)NC(=O)[C@@H](CNC(=O)CN2CCN(CC(=O)O)CCN(CC(=O)O)CCN(CC(=O)O)CC2)NC(=O)C(CN)NC(=O)c2ccc([Si](F)(C(C)(C)C)C(C)(C)C)cc2)C(=O)N[C@@H](Cc2ccc(O)cc2)C(=O)NC(Cc2c[nH]c3ccccc23)C(=O)N[C@@H](CCCCN)C(=O)N[C@@H]([C@@H](C)O)C(=O)N1)C(=O)O (some centres unmarked) (natGa complex, metal not drawn) [[Ga]19]", "N"),
    ("C[C@@H](O)[C@H](NC(=O)C1CSSCC(NC(=O)C(Cc2ccccc2)NC(=O)CNC(=O)CNC(=O)[C@@H](CC(=O)O)NC(=O)C(CC(=O)O)NC(=O)[C@@H](CNC(=O)CN2CCN(CC(=O)O)CCN(CC(=O)O)CCN(CC(=O)O)CC2)NC(=O)C[N+](C)(C)Cc2ccc([Si](F)(C(C)(C)C)C(C)(C)C)cc2)C(=O)N[C@@H](Cc2ccc(O)cc2)C(=O)NC(Cc2c[nH]c3ccccc23)C(=O)N[C@@H](CCCCN)C(=O)N[C@@H]([C@@H](C)O)C(=O)N1)C(=O)O (some centres unmarked) (natGa complex, metal not drawn) [[Ga]24]", "Y"),
    ("C[C@@H](O)[C@H](NC(=O)C1CSSCC(NC(=O)C(Cc2ccccc2)NC(=O)CNC(=O)CNC(=O)CNC(=O)C(CC(=O)O)NC(=O)[C@@H](CC(=O)O)NC(=O)C(CCCNC(N)=O)NC(=O)[C@@H](CNC(=O)C[N+](C)(C)Cc2ccc([Si](F)(C(C)(C)C)C(C)(C)C)cc2)NC(=O)CN2CCN(CC(=O)O)CCN(CC(=O)O)CCN(CC(=O)O)CC2)C(=O)N[C@@H](Cc2ccc(O)cc2)C(=O)NC(Cc2c[nH]c3ccccc23)C(=O)N[C@@H](CCCCN)C(=O)N[C@@H]([C@@H](C)O)C(=O)N1)C(=O)O (some centres unmarked) (natGa complex, metal not drawn) [[Ga]46]", "N"),
]
